molecular target: Histamine H3 Receptor (Rattus norvegicus); construct: from tissue; host or cells: rat cerebral cortex membranes; assay: In Vitro Histamine H3 Receptor Binding Analysis ([3H]-Nα-methylhistamine, rat cortical membranes); conditions: read-out: H3 Receptor Ki; rat cortical membranes; 0.8-1.2 nM [3H]-Nα-methylhistamine; 40 minutes at 25° C.; pH 7.4
Here, each record is paired with measured Ki data.
Answer format reminder: number followed by unit.

Example entries and their recorded answers appear below.
N[C@H](/C=C/[C@@H]1C[C@H]1c1c[nH]cn1)CC1CCCCC1 [Example 20] :: 0.37 nM
N[C@H](/C=C\[C@@H]1C[C@H]1c1c[nH]cn1)CC1CCCCC1 [Example 21] :: 97.7 nM

In the following, a different compound is considered.
Could you tell me which Ki is on file for O=C(NCC1CCCCC1)[C@H]1C[C@@H]1c1c[nH]cn1 [Example 2a] ? 23 nM

###

Target: Histamine H3 Receptor (Rattus norvegicus)
Construct: from tissue; host or cells: rat cerebral cortex membranes
Assay: In Vitro Histamine H3 Receptor Binding Analysis ([3H]-Nα-methylhistamine, rat cortical membranes)
Settings: rat cortical membranes; 0.8-1.2 nM [3H]-Nα-methylhistamine; 40 minutes at 25° C.; pH 7.4; read-out: H3 Receptor Ki
Experimental: Histamine H3 receptor affinity was determined in rat cortical membranes using the H3 selective agonist ligand, [^3 H]-N^α -methylhistamine (78.9 Ci/mmole, DuPont NEN Research Products, Boston, Mass.) according to the method of West et al., (1990) Mol. Pharmacol. 38: 610-613 with modifications. Briefly, animals were sacrificed by decapitation and the cerebral cortex was rapidly removed. […] Protein concentrations were determined by Coomassie Plus Protein Assay (Pierce, Rockford, Ill.). […]
pKi: −log10 of the molar value. Counter-ions that a name gives are not always drawn.
Please note: label 1 applies when pKi is 7 or greater, and label 0 applies otherwise.

Study these solved cases before continuing.
O=C(Nc1ccccc1)[C@@H]1C[C@H]1c1c[nH]cn1 (relative stereo) [Example 5, hydrochloride] :: label 0
N[C@H](Cc1ccc(Br)cc1)C(=O)N[C@@H]1C[C@H]1c1c[nH]cn1 (racemic) :: label 1
c1nc([C@@H]2C[C@H]2COCCCC2CCCCC2)c[nH]1 (racemic) :: label 0
N[C@@H](Cc1ccc(Br)cc1)C(=O)N[C@@H]1C[C@H]1c1c[nH]cn1 :: label 1
O=C(NCC12CC3CC(CC(C3)C1)C2)[C@@H]1C[C@H]1c1c[nH]cn1 (relative stereo) :: label 1

Now turn to the next compound.
Decide: is the reported value of pKi for O=C(NCCC1CCCCC1)C1CC1c1c[nH]cn1 (centres unmarked) [Example 27] equal to or greater than 7? label 1

###

Target: Histamine H3 Receptor (Rattus norvegicus, UniProt Q9QYN8)
Construct: from tissue; host or cells: rat cerebral cortex membranes
Sequence (Q9QYN8 whole entry): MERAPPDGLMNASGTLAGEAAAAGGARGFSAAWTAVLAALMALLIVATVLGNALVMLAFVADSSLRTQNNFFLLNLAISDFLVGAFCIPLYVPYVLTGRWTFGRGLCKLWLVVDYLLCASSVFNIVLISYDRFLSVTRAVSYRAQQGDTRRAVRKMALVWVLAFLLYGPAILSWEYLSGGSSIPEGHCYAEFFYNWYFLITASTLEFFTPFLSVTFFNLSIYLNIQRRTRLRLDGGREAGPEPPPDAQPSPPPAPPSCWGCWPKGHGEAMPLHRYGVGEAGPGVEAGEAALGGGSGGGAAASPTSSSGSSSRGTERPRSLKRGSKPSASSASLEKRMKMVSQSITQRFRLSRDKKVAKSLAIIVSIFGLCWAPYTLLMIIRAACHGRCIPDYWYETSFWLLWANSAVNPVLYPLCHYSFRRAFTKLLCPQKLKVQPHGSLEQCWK
Assay: In Vitro Histamine H3 Receptor Binding Analysis ([3H]-Nα-methylhistamine, rat cortical membranes)
Method: Histamine H3 receptor affinity was determined in rat cortical membranes using the H3 selective agonist ligand, [^3 H]-N^α -methylhistamine (78.9 Ci/mmole, DuPont NEN Research Products, Boston, Mass.) according to the method of West et al., (1990) Mol. Pharmacol. 38: 610-613 with modifications. Briefly, animals were sacrificed by decapitation and the cerebral cortex was rapidly removed. […] Protein concentrations were determined by Coomassie Plus Protein Assay (Pierce, Rockford, Ill.). […]
Structures can show the parent of a compound that is named as a salt.
Here, each record is paired with measured pKi data.
Scale: pKi equals -log10([C]), with [C] in mol/L.

Example entries and their recorded answers appear below.
CC(C)(C)CC/C=C\[C@H]1C[C@H]1c1c[nH]cn1 :: 7.39
CC(C)CCC#C[C@@H]1C[C@H]1c1cnc[nH]1 (relative stereo) :: 8.19
COC(=O)/C=C\[C@@H]1C[C@H]1c1cnc[nH]1 (relative stereo) :: 7.67
C(=C/[C@@H]1C[C@H]1c1c[nH]cn1)/CCC1CCCCC1 (relative stereo) [Example 16] :: 7.91
O=C(NCc1ccccc1)[C@@H]1C[C@H]1c1c[nH]cn1 (relative stereo) [Example 1, hydrochloride] :: 7.28

Could you tell me which pKi is on file for O=C(N[C@@H]1C[C@H]1c1c[nH]cn1)[C@@H]1CC2CCCCC2N1 (some centres unmarked) ? 8.07

Could you tell me which pKi is on file for O=C(N[C@@H]1C[C@H]1c1c[nH]cn1)OCCC1CCCCC1 (relative stereo) ? 7.54

Could you tell me which pKi is on file for C(#C[C@@H]1C[C@H]1c1c[nH]cn1)CCC1CCCC1 (racemic) ? 8.84

###

target: Histamine H3 Receptor (Rattus norvegicus); construct: from tissue; host or cells: rat cerebral cortex membranes; test: In Vitro Histamine H3 Receptor Binding Analysis ([3H]-Nα-methylhistamine, rat cortical membranes)
Criterion: Ki strictly less than 10 nM. Met: Criterion met. Not met: Criterion not met.

Study these solved cases before continuing.
C(=C/[C@@H]1C[C@H]1c1c[nH]cn1)/CCC1CCCCC1 [Example 23] :: Criterion met
N[C@@H](CC1CCCCC1)C(=O)N[C@H]1C[C@@H]1c1cnc[nH]1 :: Criterion not met
O=C(CCCC1CCCCC1)[C@@H]1C[C@H]1c1c[nH]cn1 (racemic) :: Criterion not met

Now turn to the next compound.
Given O=C(N[C@@H]1C[C@H]1c1cnc[nH]1)OCCC1CCCC1 (relative stereo) , is recorded Ki strictly lower than 10 nM? Criterion not met

###

target: Histamine H3 Receptor (Rattus norvegicus); construct: from tissue; host or cells: rat cerebral cortex membranes; experiment: In Vitro Histamine H3 Receptor Binding Analysis ([3H]-Nα-methylhistamine, rat cortical membranes); settings: rat cortical membranes; 0.8-1.2 nM [3H]-Nα-methylhistamine; 40 minutes at 25° C.; pH 7.4; read-out: H3 Receptor Ki
Structures can show the parent of a compound that is named as a salt.
property: Ki (nM)
Write it as a number; the unit nM goes unstated.

Example entries and their recorded answers appear below.
C[C@H](NC(=O)[C@@H]1C[C@H]1c1cnc[nH]1)C1CCCCC1 (mixture of isomers) [Example 7, hydrochloride] :: 146
O=C(NCC1CCCCC1)[C@@H]1C[C@H]1c1c[nH]cn1 :: 176
OC(CCCC1CCCCC1)[C@@H]1C[C@H]1c1c[nH]cn1 (mixture of isomers) :: 160
O=C(N[C@@H]1C[C@H]1c1cnc[nH]1)OCCCC1CCCCC1 (relative stereo) :: 55
O=C(NCC1CC1)[C@@H]1C[C@H]1c1c[nH]cn1 (relative stereo) :: 876
N[C@@H](Cc1ccc(I)cc1)C(=O)N[C@@H]1C[C@H]1c1cnc[nH]1 :: 10.4
O=C(N[C@@H]1C[C@H]1c1cnc[nH]1)OCCCc1ccccc1 (relative stereo) :: 41

Could you tell me which Ki is on file for CC(C)(C)CCC#C[C@H]1C[C@@H]1c1cnc[nH]1 ? 5.3

###

target: Histamine H3 Receptor (Rattus norvegicus); construct: from tissue; host or cells: rat cerebral cortex membranes; test: In Vitro Histamine H3 Receptor Binding Analysis ([3H]-Nα-methylhistamine, rat cortical membranes)
Counter-ions that a name gives are not always drawn.
Here, each record is paired with measured Ki data.
Write it as a number; the unit nM goes unstated.

Could you tell me which Ki is on file for C(#C[C@@H]1C[C@H]1c1cnc[nH]1)CCCCc1ccccc1 (relative stereo) [Example 41] ? 16

Could you tell me which Ki is on file for O=C(NCC1CCCCC1)[C@@H]1C[C@H]1c1c[nH]cn1 (relative stereo) [Example 2] ? 37

Could you tell me which Ki is on file for O=C(N[C@@H]1C[C@H]1c1cnc[nH]1)OCc1ccccc1Br (relative stereo) [Example 50] ? 8

Could you tell me which Ki is on file for C[C@@H](NC(=O)[C@@H]1C[C@H]1c1cnc[nH]1)C1CCCCC1 (mixture of isomers) [Example 6, hydrochloride] ? 70

###

Target: Histamine H3 Receptor (Rattus norvegicus)
Construct: from tissue; host or cells: rat cerebral cortex membranes
Test: In Vitro Histamine H3 Receptor Binding Analysis ([3H]-Nα-methylhistamine, rat cortical membranes)
Description: Histamine H3 receptor affinity was determined in rat cortical membranes using the H3 selective agonist ligand, [^3 H]-N^α -methylhistamine (78.9 Ci/mmole, DuPont NEN Research Products, Boston, Mass.) according to the method of West et al., (1990) Mol. Pharmacol. 38: 610-613 with modifications. Briefly, animals were sacrificed by decapitation and the cerebral cortex was rapidly removed. […] Protein concentrations were determined by Coomassie Plus Protein Assay (Pierce, Rockford, Ill.). […]
Here, each record is paired with measured Ki data.

Example entries and their recorded answers appear below.
O=C(N[C@@H]1C[C@H]1c1cnc[nH]1)OCc1cccc(Br)c1 (relative stereo) :: 9.9 nM
O=C(N[C@H]1C[C@@H]1c1c[nH]cn1)[C@@H]1CC2CCCCC2N1 (some centres unmarked) :: 37 nM
O=C(NCCCC1CCCCC1)[C@H]1C[C@@H]1c1cnc[nH]1 :: 42 nM
O=C(NCCCC1CCCCC1)[C@@H]1C[C@H]1c1c[nH]cn1 (relative stereo) :: 36 nM
C(=C\[C@H]1C[C@@H]1c1c[nH]cn1)/CCC1CCCCC1 :: 56 nM

Could you tell me which Ki is on file for O=C(N[C@@H]1C[C@H]1c1c[nH]cn1)OCc1ccccc1 (relative stereo) ? 5.8 nM

Could you tell me which Ki is on file for N[C@@H](CC1CCCCC1)C(=O)N[C@@H]1C[C@H]1c1cnc[nH]1 ? 1.85 nM

Could you tell me which Ki is on file for C(#C[C@@H]1C[C@H]1c1c[nH]cn1)CCC1CCCCC1 (racemic) ? 1.8 nM
